Conditions: in ethyl acetate, 288.15 K
PROPERTY MEASURED: solubility (mole fraction)
Numbers only.

Need solubility (mole fraction), item CCCCN(CCCC)CC(O)c1cc(Cl)cc2c1-c1ccc(Cl)cc1/C2=C/c1ccc(Cl)cc1 (stereo unspecified)
0.00315

---

Conditions: in n-pentanol, 303.15 K
PROPERTY MEASURED: solubility (mole fraction)
Give bare numbers.

Could you tell me which solubility (mole fraction) is on file for CCCCN(CCCC)CC(O)c1cc(Cl)cc2c1-c1ccc(Cl)cc1/C2=C/c1ccc(Cl)cc1 (stereo unspecified) ?
0.000968

---

Details: in n-heptanol, 303.15 K
PROPERTY MEASURED: solubility (mole fraction)

Please look up its solubility (mole fraction): CCCCN(CCCC)CC(O)c1cc(Cl)cc2c1-c1ccc(Cl)cc1/C2=C/c1ccc(Cl)cc1 (stereo unspecified)
0.00149

---

Details: in methanol, 278.15 K
PROPERTY MEASURED: solubility (mole fraction)

Record request: solubility (mole fraction) value, item CCCCN(CCCC)CC(O)c1cc(Cl)cc2c1-c1ccc(Cl)cc1/C2=C/c1ccc(Cl)cc1 (stereo unspecified)
1.34e-05

---

Details: in n-butyl acetate, 293.15 K
PROPERTY MEASURED: solubility (mole fraction)

Query: solubility (mole fraction); subject: CCCCN(CCCC)CC(O)c1cc(Cl)cc2c1-c1ccc(Cl)cc1/C2=C/c1ccc(Cl)cc1 (stereo unspecified)
0.00864

---

Settings: in n-propanol, 278.15 K
PROPERTY MEASURED: solubility (mole fraction)
One number for each entry.

Which measured solubility (mole fraction) value corresponds to CCCCN(CCCC)CC(O)c1cc(Cl)cc2c1-c1ccc(Cl)cc1/C2=C/c1ccc(Cl)cc1 (stereo unspecified) ?
8.62e-05

---

Conditions: in methyl acetate, 278.15 K
PROPERTY MEASURED: solubility (mole fraction)
One number for each entry.

Data request, read-out solubility (mole fraction), for CCCCN(CCCC)CC(O)c1cc(Cl)cc2c1-c1ccc(Cl)cc1/C2=C/c1ccc(Cl)cc1 (stereo unspecified)
0.000656

---

Details: in ethanol, 298.15 K
PROPERTY MEASURED: solubility (mole fraction)
Answers are plain numbers.

What does the data say about its solubility (mole fraction)? Entry: CCCCN(CCCC)CC(O)c1cc(Cl)cc2c1-c1ccc(Cl)cc1/C2=C/c1ccc(Cl)cc1 (stereo unspecified)
0.000158

---

Settings: in n-propanol, 288.15 K
PROPERTY MEASURED: solubility (mole fraction)
Numbers only.

Consider the compound CCCCN(CCCC)CC(O)c1cc(Cl)cc2c1-c1ccc(Cl)cc1/C2=C/c1ccc(Cl)cc1 (stereo unspecified) and give its measured solubility (mole fraction).
0.000145

---

Conditions: in ethanol, 288.15 K
PROPERTY MEASURED: solubility (mole fraction)
Answers are plain numbers.

I have this molecule here, CCCCN(CCCC)CC(O)c1cc(Cl)cc2c1-c1ccc(Cl)cc1/C2=C/c1ccc(Cl)cc1 (stereo unspecified) , and I need its recorded solubility (mole fraction).
9.63e-05

---

Conditions: in ethanol, 323.15 K
PROPERTY MEASURED: solubility (mole fraction)
One number for each entry.

Need solubility (mole fraction) of CCCCN(CCCC)CC(O)c1cc(Cl)cc2c1-c1ccc(Cl)cc1/C2=C/c1ccc(Cl)cc1 (stereo unspecified) , thanks.
0.000497
